Molecular target: Human immunodeficiency virus type 1 reverse transcriptase (Human immunodeficiency virus 1)
Assay: Inhibition of HIV1 reverse transcriptase
pEC50: −log10 of the molar value.

| compound | pEC50 |
| --- | --- |
| CC(=O)c1ccc(C)cc1NC(C(N)=O)c1c(Cl)cccc1Cl (stereo unspecified) [LOVIRIDE] | 7.89 |

----------
Molecular target: Human immunodeficiency virus type 1 reverse transcriptase (Human immunodeficiency virus 1, UniProt Q72547, K103N/Y181C)
Assay: Inhibition of recombinant HIV1 reverse transcriptase K103N/Y181C double mutant
pIC50: −log10 of the molar value.

| entry.smiles | pIC50 |
| --- | --- |
| Cc1cc(C)c(Nc2ccnc(Nc3ccc(C#N)cc3)n2)c(C)c1 | 7.40 |

----------
Target: Human immunodeficiency virus type 1 reverse transcriptase (Human immunodeficiency virus 1, UniProt Q72547, K103N/Y181C)
Assay: Inhibition of HIV1 RES056 reverse transcriptase K103N/Y181C double mutant

| entry.smiles | cmp | EC50 [µM] |
| --- | --- | --- |
| N#Cc1ccc(Nc2nccc(/C(=N\N)c3ccccc3Br)n2)cc1 | > | 9.2 |
| N#Cc1ccc(Nc2nccc(/C(=N\N)c3ccc4ccccc4c3)n2)cc1 | = | 8.4 |

----------
pIC50 reference
Target: Human immunodeficiency virus type 1 reverse transcriptase (Human immunodeficiency virus 1, UniProt Q72547, K103N)
Assay: Inhibition of recombinant HIV1 reverse transcriptase K103N mutant
pIC50: −log10 of the molar value.
readout.name: pIC50

| entry.smiles | readout.name | cmp | endpoint.result |
| --- | --- | --- | --- |
| Cc1cc(C)c(Nc2ccnc(Nc3ccc(C#N)cc3)n2)c(C)c1 | pIC50 | = | 8.40 |
| Cc1cc(C)c(Nc2ccnc(Nc3ccc(C(N)=O)cc3)n2)c(C)c1 | pIC50 | < | 5.00 |
| Cc1cc(C)c(Nc2ccnc(Nc3ccc(Cl)cc3)n2)c(C)c1 | pIC50 | = | 7.60 |

----------
Target: Human immunodeficiency virus type 1 reverse transcriptase (Human immunodeficiency virus 1, UniProt Q72547, L100I)
Test: Inhibition of recombinant HIV1 reverse transcriptase L100I mutant
Documented IC50 across a set of compounds

| entry.smiles | cmp | IC50 / nM |
| --- | --- | --- |
| Cc1cc(C)c(Nc2ccnc(Nc3ccc(Cl)cc3)n2)c(C)c1 | = | 200 |
| Cc1cc(C)c(Nc2ccnc(Nc3ccc(C#N)cc3)n2)c(C)c1 | = | 15.8 |
| Cc1cc(C)c(Nc2ccnc(Nc3ccc(C(N)=O)cc3)n2)c(C)c1 | > | 10000 |
